tested on: MDA-N; assay: NCI tumour cell line growth inhibition, 48 h
Active and inactive are the calls of the source. Cut-off read from the data, not from the text of the source: active = GI50 up to about 1.1 µM and inactive = higher.
# valid calls are active, inactive; nothing else

Sample answers from the record:
1) COc1ccc(C(C#N)NC23CC4CC(CC(C4)C2)C3)cc1OC (centres undefined)    inactive
2) C=CCNC(=S)N/N=C1\C(=O)N(CN2CCOCC2)c2ccc([N+](=O)[O-])cc21    inactive
3) CC(=O)O[C@H]1C(=O)[C@@]2(C)[C@H]([C@H](OC(=O)C3CCCCC3)[C@]3(O)C[C@H](OC(=O)[C@H](O)[C@@H](NC(=O)C4CCCCC4)C4CCCCC4)C(C)=C1C3(C)C)[C@]1(OC(C)=O)CO[C@@H]1C[C@@H]2O    active
4) C[C@]12CCC3C4=C(CCC3C1CCC2=O)C(=O)[C@H]1O[C@H]1C4=O (some centres undefined)    inactive
5) Cc1cc(C)c2c(O)cc(-c3cccc(F)c3)nc2n1    active

Problem: Would you mind telling me which call this test gave "CN(NC(=O)/C(=C/C=C/c1ccccc1)NC(=O)c1ccccc1)C1=C(Cl)C(=O)[N+](c2ccccc2)=CC1" ?
Solution: inactive

Problem: Would you mind telling me which call this test gave COC(=O)C(Cc1c(C2Nc3ccccc3C2CC(NC(C)=O)C(=O)OC)[nH]c2ccccc12)NC(C)=O (centres undefined) ?
Solution: inactive
